target: SARS-CoV-2 spike protein receptor binding domain (RBD) (SARS-CoV-2, UniProt P0DTC2 319-539); assay: ELISA on plate-coated RBD
Readout Label: EC50 (µg/mL)

binder="C707 (antibody, V domains shown) VH: EVQLVESGGGLVKPGGSLRLSCAASGFTFSSYSMNWVRQAPGKGLAWVSSISSSNNIIYYADSVKGRFTISRDDAKDSLYLHMKSLRADDTAVYFCARVPSWAPYQLLPGPFDYWGQGILVTVSS VL: IRMTQSPSSLSASVGDRVTITCQASQAIASYLSWYQHKPGRAPKLLIYDASNLEIGVPSRFSGSGSGTDFTFTISSLQSEDNATYYCQQYESLPGTFGGGTKVEIK" readout_value=0.026
binder="C706 (antibody, V domains shown) VH: EVQLVESGGGLVKPGGSLRLSCAASGFTFSNVWMSWVRQAPGKGLEWVGRIKSKIDGGTTEYAAPVKGRFIISRDDSKNTLSLQMNSLKTEDTAVYYCTTDHGREPPVHWGQGTLVTVSS VL: EIVLTQSPGTLSLSPGERASLSCRARQSVYSNYLAWYQHKSGQAPRLLFYGASSRATDIPDRFSASGSGTDFTLTISRLEPEDFAVYYCLQYGPSPTFGPGTRLEIK" readout_value=0.0735
